- Assay Name: Cytotoxicity in the TK6 assay (CE, RS, RSG, RTG)
- Settings: human, TK6 cells without S9 mix, CE3 (%), cell viability on Day 3, 24 h treatment, -S9 mix, 173.70 μg/mL
Property Name: viability at 24 h, 173.7 μg/mL (%)

[[record]]
compound = "Nc1cc([N+](=O)[O-])ccc1C(=O)O [4-Nitroanthranilic acid]"
endpoint_result = 84.1


* * *

- Assay Name: Cytotoxicity in the TK6 assay (CE, RS, RSG, RTG)
- Settings: human, TK6 cells with rat liver S9 mix, CE0 (%), cell viability on Day 0, Short treatment, +S9 mix, dose 445 μg/mL
Property Name: viability at 4 h, 445 μg/mL (%)

[[record]]
molecule = "Nc1cc([N+](=O)[O-])ccc1C(=O)O"
property_name = "viability at 4 h, 445 μg/mL"
endpoint_result = 72.7


* * *

- Assay Name: Cytotoxicity in the TK6 assay (CE, RS, RSG, RTG)
- Settings: human, TK6 cells without S9 mix, CE0 (%), cell viability on Day 0, 24 h treatment, -S9 mix, 277.90 μg/mL
Property Name: viability at 24 h, 277.9 μg/mL (%)

[[record]]
molecule = "Nc1cc([N+](=O)[O-])ccc1C(=O)O [4-Nitroanthranilic acid]"
endpoint_result = 23.4


* * *

- Assay Name: Cytotoxicity in the TK6 assay (CE, RS, RSG, RTG)
- Settings: human, TK6 cells without S9 mix, CE3 (%), cell viability on Day 3, 24 h treatment, -S9 mix, 277.90 μg/mL
Property Name: viability at 24 h, 277.9 μg/mL (%)

[[record]]
molecule = "Nc1cc([N+](=O)[O-])ccc1C(=O)O"
property_name = "viability at 24 h, 277.9 μg/mL"
endpoint_result = 84.1


* * *

- Assay Name: Cytotoxicity in the TK6 assay (CE, RS, RSG, RTG)
- Settings: human, TK6 cells without S9 mix, CE3 (%), cell viability on Day 3, Short treatment, -S9 mix, dose 1821.4 μg/mL
Property Name: viability at 4 h, 1821.4 μg/mL

[[record]]
compound = "Nc1cc([N+](=O)[O-])ccc1C(=O)O [4-Nitroanthranilic acid]"
endpoint_result = "105%"


* * *

- Assay Name: Cytotoxicity in the TK6 assay (CE, RS, RSG, RTG)
- Settings: human, TK6 cells without S9 mix, CE3 (%), cell viability on Day 3, Short treatment, -S9 mix, dose 173.70 μg/mL
Property Name: viability at 4 h, 173.7 μg/mL (%)

[[record]]
molecule = "Nc1cc([N+](=O)[O-])ccc1C(=O)O"
result_units = "%"
endpoint_result = 89.3


* * *

- Assay Name: Cytotoxicity in the TK6 assay (CE, RS, RSG, RTG)
- Settings: human, TK6 cells without S9 mix, CE0 (%), cell viability on Day 0, 24 h treatment, -S9 mix, 444.70 μg/mL
Property Name: viability at 24 h, 444.7 μg/mL (%)

[[record]]
molecule = "Nc1cc([N+](=O)[O-])ccc1C(=O)O [4-Nitroanthranilic acid]"
property_name = "viability at 24 h, 444.7 μg/mL"
result_units = "%"
endpoint_result = 42


* * *

- Assay Name: Cytotoxicity in the TK6 assay (CE, RS, RSG, RTG)
- Settings: human, TK6 cells without S9 mix, CE0 (%), cell viability on Day 0, 24 h treatment, -S9 mix, 1138.4 μg/mL
Property Name: viability at 24 h, 1138.4 μg/mL (%)

[[record]]
molecule = "Nc1cc([N+](=O)[O-])ccc1C(=O)O"
property_name = "viability at 24 h, 1138.4 μg/mL"
endpoint_result = 30.4


* * *

- Assay Name: Cytotoxicity in the TK6 assay (CE, RS, RSG, RTG)
- Settings: human, TK6 cells without S9 mix, CE3 (%), cell viability on Day 3, Short treatment, -S9 mix, dose 711.5 μg/mL
Property Name: viability at 4 h, 711.5 μg/mL

[[record]]
molecule = "Nc1cc([N+](=O)[O-])ccc1C(=O)O"
property_name = "viability at 4 h, 711.5 μg/mL"
endpoint_result = "101%"


* * *

- Assay Name: Cytotoxicity in the TK6 assay (CE, RS, RSG, RTG)
- Settings: human, TK6 cells without S9 mix, CE0 (%), cell viability on Day 0, Short treatment, -S9 mix, dose 1138.4 μg/mL
Property Name: viability at 4 h, 1138.4 μg/mL (%)

[[record]]
compound = "Nc1cc([N+](=O)[O-])ccc1C(=O)O [4-Nitroanthranilic acid]"
endpoint_result = 46

